Please respond with reported IC90 for every item in the list.
System: M. tuberculosis H37Rv growth inhibition
method: Mycobacterium tuberculosis H37Rv growth inhibition, putative kinase inhibitor library, confirmatory dose response (AID 2842);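 note: bacteria incubated one week before Alamar blue readout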

COc1cc2ccccc2cc1C(=O)Nc1nnc(-c2cc(C)ccc2C)o1 : 1.23 µg/mL
CN1CCc2c(sc(NC(=O)c3ccc(C(C)(C)C)cc3)c2C(N)=O)C1 : 12.7 µg/mL
CCc1ccc(-c2nnc3c4cc5c(cc4n(Cc4ccccc4F)cc2-3)OCCO5)cc1 : 6.34 µg/mL
CCOc1ccc2nc(N(CCCn3ccnc3)C(=O)c3cccs3)sc2c1 : 3.43 µg/mL

Give IC90 for each of the items listed below.
1. COc1ccccc1Cn1cc2c(-c3ccc(F)cc3)nnc-2c2cc(OC)c(OC)cc21
2. N#C/C(=C\c1c(Oc2ccccc2F)nc2ccccn2c1=O)C(N)=O
3. COc1cccc2sc(NNC(=O)c3cc(=O)c4ccccc4o3)nc12

["22 µg/mL", "11.4 µg/mL", "25.5 µg/mL"]

Give IC90 for each of the items listed below.
1. Clc1cccc(N2CCN(c3nc(Nc4ccccc4)c4nccnc4n3)CC2)c1
2. CCCc1cc(-c2nc(N)ncc2-c2ccc3c(c2)OCO3)c(O)cc1OC
3. O=C(Nc1nnc(-c2ccccc2)o1)c1ccco1
4. COc1ccccc1-c1nc(C(N)=O)c2[nH]c(=O)n(-c3ccc(C(C)(C)C)cc3)c2n1
5. COc1ccccc1Cn1cc2c(-c3ccc(F)cc3)nnc-2c2cc(C)ccc21
6. CCOC(=O)COc1ccc2cc(-c3ccc(OC)c(OC)c3)c(=O)oc2c1
7. Cc1cccn2c(=O)c3cc(C(=O)NC(C)c4ccccc4)c(=N)n(C4CCCCC4)c3nc12 (configuration not stated)

["4.58 µg/mL", "17.6 µg/mL", "2.78 µg/mL", "9.91 µg/mL", "49.2 µg/mL", "2.18 µg/mL", "3.05 µg/mL"]

Give IC90 for each of the items listed below.
1. CCC(CO)Nc1ncnc2c1cnn2-c1ccc(Cl)c(Cl)c1 (configuration not stated)
2. COC(=O)c1c(NC(=O)c2ccc(C)c(C)c2)sc2c1CCN(C(C)=O)C2

14.2 µg/mL
48 µg/mL

Give IC90 for each of the items listed below.
1. O=C(Cc1cccc2ccccc12)Nc1nc(-c2ccc(Br)s2)cs1
2. CCOC(=O)c1cnc2ccc(OCC)cc2c1Nc1ccccc1C

1: 15.7 µg/mL; 2: 8.82 µg/mL
